- target.system: the molecule itself
- protocol: SEC-MALS; sample buffer (20 mM K-phosphate pH 6.5, 100 mM KCl, 0.5 mM EDTA); 6 °C for the individual domains; concentration series fitted to a fast monomer–dimer equilibrium; dimer to monomers
pKd: −log10 of the molar value.
# reported pKd; entries follow

# example entries with known answers
RBD (residues 1–117) (domain or fragment, E. coli, UniProt P0A850 1-117, looked up, Trigger Factor, E. coli, residues 1-117 (stop codon at position 118); not shown: His tag, N-terminal, cleaved) MQVSVETTQGLGRRVTITIAADSIETAVKSELVNVAKKVRIDGFRKGKVPMNIVAQRYGASVRQDVLGDLMSRNFIDAIIKEKINPAGAPTYVPGEYKLGEDFTYSVEFEVYPEVEL | ≤ 2.82
SBD–PPD (114–432) (domain or fragment, E. coli, UniProt P0A850 114-432, looked up, Trigger Factor, E. coli, residues 114-432; also called bi-domain construct SBD–PPD; not shown: His tag, N-terminal, cleaved) EVELQGLEAIEVEKPIVEVTDADVDGMLDTLRKQQATWKEKDGAVEAEDRVTIDFTGSVDGEEFEGGKASDFVLAMGQGRMIPGFEDGIKGHKAGEEFTIDVTFPEEYHAENLKGKAAKFAINLKKVEERELPELTAEFIKRFGVEDGSVEGLRAEVRKNMERELKSAIRNRVKSQAIEGLVKANDIDVPAALIDSEIDVLRRQAAQRFGGNEKQALELPRELFEEQAKRRVVVGLLLGEVIRTNELKADEERVKGLIEEMASAYEDPKEVIEFYSKNKELMDNMRNVALEEQAVEAVLAKAKVTEKETTFNELMNQQA | < 3.00
SBD (114–148/247–432) (domain or fragment, E. coli, UniProt P0A850 114-148, looked up, Trigger Factor, E. coli, residues 114-148 (linker part of the SBD); Trigger Factor, E. coli, residues 247-432 (C-terminal part of the SBD); The PPD (149-246) is left out; not shown: His tag, N-terminal, cleaved) EVELQGLEAIEVEKPIVEVTDADVDGMLDTLRKQQELTAEFIKRFGVEDGSVEGLRAEVRKNMERELKSAIRNRVKSQAIEGLVKANDIDVPAALIDSEIDVLRRQAAQRFGGNEKQALELPRELFEEQAKRRVVVGLLLGEVIRTNELKADEERVKGLIEEMASAYEDPKEVIEFYSKNKELMDNMRNVALEEQAVEAVLAKAKVTEKETTFNELMNQQA | < 3.00

Shift focus to the following entry.
Respond only with pKd recorded for PPD (149–249) (domain or fragment, E. coli, UniProt P0A850 149-249, looked up, Trigger Factor, E. coli, residues 149-249; also called peptidyl-prolyl isomerase domain; not shown: His tag, N-terminal, cleaved) ATWKEKDGAVEAEDRVTIDFTGSVDGEEFEGGKASDFVLAMGQGRMIPGFEDGIKGHKAGEEFTIDVTFPEEYHAENLKGKAAKFAINLKKVEERELPELT
< 2.30
